Task for the reader: assign each of the following molecules its reported pIC50.
Target Desc: PHF8 (KDM7) (Homo sapiens, UniProt Q9UPP1)
Sequence (Q9UPP1 37-477 limits assumed): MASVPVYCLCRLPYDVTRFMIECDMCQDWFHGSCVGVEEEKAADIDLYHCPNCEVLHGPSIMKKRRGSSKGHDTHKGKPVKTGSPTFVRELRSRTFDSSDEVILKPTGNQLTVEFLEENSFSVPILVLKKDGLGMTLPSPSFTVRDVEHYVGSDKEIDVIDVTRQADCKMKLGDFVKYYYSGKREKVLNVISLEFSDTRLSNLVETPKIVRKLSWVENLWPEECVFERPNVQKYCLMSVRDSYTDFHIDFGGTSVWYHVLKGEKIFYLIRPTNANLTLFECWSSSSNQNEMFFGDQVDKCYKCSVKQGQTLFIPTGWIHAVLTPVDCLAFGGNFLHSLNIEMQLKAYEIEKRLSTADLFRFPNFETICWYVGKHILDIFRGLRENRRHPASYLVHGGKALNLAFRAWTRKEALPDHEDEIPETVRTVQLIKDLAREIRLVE
pIC50: −log10 of the molar value.

Here is how some molecules turned out for pIC50.
O=C(O)c1ccnc(CN[C@@H]2CCN(CCCc3ccccc3)C2)c1 = ≤ 6.00
CN(CCCCN(Cc1ccccc1)C1CC1)C(=O)CNCc1cc(C(=O)O)ccn1 = 6.00 to 7.00

List the reported pIC50 of each molecule below.
1. CCCCN1CCCC1CCNCc1cc(C(=O)O)ccn1 (stereo not drawn)
2. O=C(O)c1ccnc(CNCCCN2CCCC2)c1
3. COc1ccccc1CN1CCC(NC(=O)CNCc2cc(C(=O)O)ccn2)CC1
4. O=C(O)c1ccnc(CNCC(=O)N2CCCC2)c1

1: ≤ 6.00; 2: ≤ 6.00; 3: > 7.00; 4: 6.00 to 7.00

====

Target Desc: GASC1 (KDM4C) (Homo sapiens, UniProt Q9H3R0)
Construct: Full length
Sequence (Q9H3R0 whole entry): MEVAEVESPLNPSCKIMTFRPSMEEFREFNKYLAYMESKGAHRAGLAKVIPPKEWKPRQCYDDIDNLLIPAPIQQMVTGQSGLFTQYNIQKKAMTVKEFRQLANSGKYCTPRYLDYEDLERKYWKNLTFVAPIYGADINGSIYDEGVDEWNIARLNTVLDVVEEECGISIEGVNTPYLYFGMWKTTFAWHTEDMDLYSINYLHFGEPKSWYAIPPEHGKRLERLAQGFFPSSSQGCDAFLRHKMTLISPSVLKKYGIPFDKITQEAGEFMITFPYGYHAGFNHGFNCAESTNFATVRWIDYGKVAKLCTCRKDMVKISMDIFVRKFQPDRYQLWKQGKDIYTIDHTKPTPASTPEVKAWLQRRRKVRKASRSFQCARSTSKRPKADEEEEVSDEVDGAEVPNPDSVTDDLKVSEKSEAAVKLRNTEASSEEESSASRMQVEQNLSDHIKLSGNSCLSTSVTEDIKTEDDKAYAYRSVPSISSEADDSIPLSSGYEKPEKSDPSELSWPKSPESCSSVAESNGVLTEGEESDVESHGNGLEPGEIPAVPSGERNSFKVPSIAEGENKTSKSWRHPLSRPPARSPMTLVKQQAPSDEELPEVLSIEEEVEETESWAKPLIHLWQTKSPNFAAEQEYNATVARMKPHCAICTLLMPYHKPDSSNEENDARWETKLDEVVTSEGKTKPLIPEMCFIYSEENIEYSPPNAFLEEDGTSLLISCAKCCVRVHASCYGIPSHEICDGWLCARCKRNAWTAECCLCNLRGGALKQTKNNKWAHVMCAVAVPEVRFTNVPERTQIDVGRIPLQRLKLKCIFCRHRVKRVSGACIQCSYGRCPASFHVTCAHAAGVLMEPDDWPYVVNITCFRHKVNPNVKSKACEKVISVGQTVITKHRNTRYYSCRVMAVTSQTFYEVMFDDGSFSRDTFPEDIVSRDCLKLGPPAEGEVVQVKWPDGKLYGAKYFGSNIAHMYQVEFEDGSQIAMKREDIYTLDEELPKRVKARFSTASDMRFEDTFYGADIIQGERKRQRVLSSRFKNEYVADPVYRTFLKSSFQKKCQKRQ
Assay: Immunofluorescence assay in U2OS cells transfected with pCMVHA JMJD2C (H3K9me3 mark)
Condition Set: 20 hours
pIC50: −log10 of the molar value.
Task for the reader: assign each of the following compounds its reported pIC50.

Here is how some compounds turned out for pIC50.
CCN1CCCC1CNC(=O)CNCc1cc(C(=O)O)ccn1 (stereo not drawn) [drawing 313] = < 4.30
O=C(O)c1ccnc(CNCC2CC2)c1 [drawing 299] = < 4.30
CN(C)CCCCNCc1cc(C(=O)O)ccn1 = < 4.30
C=CCN(CC=C)C(=O)CNCc1cc(C(=O)O)ccn1 [drawing 309] = 4.30 to 6.00
CN(C)CCNCc1cc(C(=O)O)ccn1 [drawing 297] = 4.30 to 6.00

Let us move to another entry and its pIC50.
The compound CN(Cc1ccnn1C)C(=O)CNCc1cc(C(=O)O)ccn1 [drawing 314] showed pIC50 equal to < 4.30

====

Task for the reader: assign each of the following compounds its reported pIC50.
Target Desc: PLU1 (KDM5B) (Homo sapiens, UniProt Q9UGL1)
Construct: 1-809; host or cells: E. coli
Sequence (Q9UGL1 1-809): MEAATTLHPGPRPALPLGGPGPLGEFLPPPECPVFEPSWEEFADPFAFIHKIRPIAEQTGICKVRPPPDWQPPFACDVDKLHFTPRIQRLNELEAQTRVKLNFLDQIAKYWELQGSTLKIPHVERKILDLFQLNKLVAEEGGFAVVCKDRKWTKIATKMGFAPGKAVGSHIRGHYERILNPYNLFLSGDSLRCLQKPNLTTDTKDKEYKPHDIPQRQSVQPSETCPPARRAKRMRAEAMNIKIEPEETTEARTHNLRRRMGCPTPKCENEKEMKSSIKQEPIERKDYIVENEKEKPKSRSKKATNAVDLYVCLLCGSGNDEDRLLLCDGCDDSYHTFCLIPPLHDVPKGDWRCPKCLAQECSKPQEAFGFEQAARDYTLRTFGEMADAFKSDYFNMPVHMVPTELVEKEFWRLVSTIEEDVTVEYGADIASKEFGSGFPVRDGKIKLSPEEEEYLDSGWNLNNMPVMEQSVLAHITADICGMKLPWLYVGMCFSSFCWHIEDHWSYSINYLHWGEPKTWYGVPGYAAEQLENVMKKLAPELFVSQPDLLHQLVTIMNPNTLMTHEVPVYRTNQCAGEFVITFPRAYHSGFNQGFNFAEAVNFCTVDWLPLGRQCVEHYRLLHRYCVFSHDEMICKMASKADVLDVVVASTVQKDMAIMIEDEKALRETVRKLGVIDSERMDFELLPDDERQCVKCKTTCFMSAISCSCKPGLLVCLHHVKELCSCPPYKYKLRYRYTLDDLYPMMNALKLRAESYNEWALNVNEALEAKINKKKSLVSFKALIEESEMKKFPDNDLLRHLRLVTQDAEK
Assay: Histone lysine demethylase AlphaLISA assay, PLU1
Assay type: biochemical
Condition Set: substrate H3K4M3B
pIC50: −log10 of the molar value.

CCN(CC)CCCCNCc1cc(C(=O)Oc2c(OC)cccc2OC)ccn1 = > 7.00

List the reported pIC50 of each compound below.
1. CCN(CCN(C)C)C(=O)CNCc1cc(C(=O)OC(C)CCN(C)C(=O)C(F)(F)F)ccn1 (stereo not shown)
2. O=C(O)c1ccnc(CN(CC(=O)N2CCCCC2)Cc2ccccc2)c1
3. CCN(CC)CCCCNCc1cc(C(=O)O)ccn1

6.00 to 7.00
≤ 6.00
> 7.00

====

pIC50: −log10 of the molar value.
Dear all, this message contains pIC50 results, target or system GASC1 (KDM4C, JMJD2C) (Homo sapiens).

Here is how some compounds turned out for pIC50.
CCN(CCN(C)C)C(=O)CNCc1cc(C(=O)OC(C)CCN(C)C(=O)C(F)(F)F)ccn1 (stereo not shown) [#64] = > 7.00
O=C(O)c1ccnc(CN2CCC2)c1 [#79] = ≤ 6.00

List the reported pIC50 of each compound below.
1. CCN(CCN(C)C)C(=O)CNCc1cc(C(=O)OCCF)ccn1 [#90]
2. CC(C)CCNCc1cc(C(=O)O)ccn1 [#22]
3. O=C(O)c1ccnc(CNC[C@@H](O)CO)c1 [#3]

1. 6.00 to 7.00
2. 6.00 to 7.00
3. 6.00 to 7.00

List the reported pIC50 of each compound below.
1. O=C(CNCc1cc(C(=O)O)ccn1)NC1CCN(CCc2ccccc2)C1 (stereo not shown) [#39]
2. CCN(CCN(C)C)C(=O)CNCc1cc(C(=O)OC(CCNC(=O)C(F)(F)F)CC(=O)OC(C)C)ccn1 (stereo not shown) [#74]

1. > 7.00
2. 6.00 to 7.00
